Taken from patent US20220033483A1.

- Tgt: T1, cTnI quality control product recombinant protein (human, UniProt P19429 1-210, limits assumed)
- T1 construct: the assay paragraphs only say cTnI; also called cardiac troponin I; cTnI antigen
- Assay remarks: AMC biosensor, antibody on sensor
Reported Kd by item:
The answer is to be given in nM; state only the numeric part.

Binder	Parameter	Measured result
Mutation 5 (antibody, V domains shown, other CDR sites as WT) VH: QVQLQQSGTELAKPGASVKFSCKASWYTFSTYWMYWIKQRPGQGLEWIGYLNPSSGHTVYNQRFKDKATLTADKSSSTAYMQLNSLTSEDSAVYYCARKYFGPFSMDYWGQGTSVTVSS VL: EIFLTQSPAIMSASPGEKVTMTCSASTTVSYSHWYQQKSGTSPKRWLYDYSKIASGIPVRFSGSGSGTSYSLTISSMEAEDAATYYCQEWSTQPYTFGGGTKLEIKR	Kd	978000
Mutation 1 (antibody, V domains shown, other CDR sites as WT) VH: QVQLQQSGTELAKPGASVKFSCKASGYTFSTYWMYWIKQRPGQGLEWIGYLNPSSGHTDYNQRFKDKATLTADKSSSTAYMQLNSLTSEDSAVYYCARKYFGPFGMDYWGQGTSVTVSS VL: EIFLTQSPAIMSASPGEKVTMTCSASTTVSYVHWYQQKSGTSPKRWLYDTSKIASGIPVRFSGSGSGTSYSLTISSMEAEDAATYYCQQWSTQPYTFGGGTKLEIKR	Kd	9.96

Enquiry: Consider the binder Mutation 2 (antibody, V domains shown, other CDR sites as WT) VH: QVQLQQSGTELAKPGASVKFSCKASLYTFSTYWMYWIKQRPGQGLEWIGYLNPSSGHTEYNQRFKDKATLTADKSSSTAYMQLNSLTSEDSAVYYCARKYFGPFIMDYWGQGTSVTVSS VL: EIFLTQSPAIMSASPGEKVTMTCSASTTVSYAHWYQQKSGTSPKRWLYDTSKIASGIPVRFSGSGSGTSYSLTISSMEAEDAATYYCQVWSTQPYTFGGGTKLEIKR and give its measured Kd.
Return: 15.6
